# TEST_SYSTEM: JAK2 (Homo sapiens, UniProt O60674)
# Sequence (O60674 whole entry, species assumed): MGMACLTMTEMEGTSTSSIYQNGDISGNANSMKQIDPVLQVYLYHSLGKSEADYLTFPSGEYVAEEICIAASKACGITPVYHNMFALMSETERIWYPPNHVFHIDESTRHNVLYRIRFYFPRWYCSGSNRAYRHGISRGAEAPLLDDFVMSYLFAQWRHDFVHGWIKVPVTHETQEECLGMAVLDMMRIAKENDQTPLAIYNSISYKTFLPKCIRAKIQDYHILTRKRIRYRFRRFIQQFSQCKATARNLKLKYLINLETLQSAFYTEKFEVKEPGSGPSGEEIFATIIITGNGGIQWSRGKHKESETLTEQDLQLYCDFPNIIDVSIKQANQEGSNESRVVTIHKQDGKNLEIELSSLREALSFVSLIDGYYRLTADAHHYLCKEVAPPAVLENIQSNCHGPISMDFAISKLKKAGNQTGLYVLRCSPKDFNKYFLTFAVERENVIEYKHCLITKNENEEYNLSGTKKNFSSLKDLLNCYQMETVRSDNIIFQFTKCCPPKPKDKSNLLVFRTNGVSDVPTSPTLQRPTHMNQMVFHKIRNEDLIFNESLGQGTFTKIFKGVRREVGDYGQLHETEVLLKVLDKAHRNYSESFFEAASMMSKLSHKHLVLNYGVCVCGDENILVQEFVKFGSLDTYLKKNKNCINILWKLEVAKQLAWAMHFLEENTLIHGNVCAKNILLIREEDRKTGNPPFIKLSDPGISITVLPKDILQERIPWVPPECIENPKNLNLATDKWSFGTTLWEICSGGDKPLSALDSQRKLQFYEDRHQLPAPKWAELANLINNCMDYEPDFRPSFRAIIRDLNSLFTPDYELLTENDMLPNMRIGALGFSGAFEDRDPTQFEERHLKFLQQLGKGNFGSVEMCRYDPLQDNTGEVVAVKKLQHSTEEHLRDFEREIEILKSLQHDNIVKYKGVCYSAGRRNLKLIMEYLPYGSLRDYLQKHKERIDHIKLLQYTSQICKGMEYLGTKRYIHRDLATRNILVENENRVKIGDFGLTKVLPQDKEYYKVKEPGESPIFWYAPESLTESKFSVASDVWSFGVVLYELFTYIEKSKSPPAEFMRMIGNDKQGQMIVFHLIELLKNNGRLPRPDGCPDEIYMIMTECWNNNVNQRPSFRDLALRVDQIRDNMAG
# EXPERIMENT_NOTES: Kinase profiling JAK2
# Assay type: biochemical
# MEASUREMENT_PARAMETERS: 100 micromolar inhibitor concentration; 100 is no change
RECORDED_METRIC: residual kinase activity, JAK2
A bare number is all that is needed in reply.

Worked examples, 6 compounds total:
{"INPUT_SMILES": "O=C(Nc1nc2ccc(F)cc2s1)c1ccccc1", "RECORDED_METRIC": "residual kinase activity, JAK2", "DATA_VALUE": 109}
{"INPUT_SMILES": "COc1ccc2nc(NC(=O)c3ccccc3)sc2c1", "RECORDED_METRIC": "residual kinase activity, JAK2", "DATA_VALUE": 81}
{"INPUT_SMILES": "COc1ccc2sc(NC(=O)c3cccc(C(N)=O)c3)nc2c1", "RECORDED_METRIC": "residual kinase activity, JAK2", "DATA_VALUE": 113}
{"INPUT_SMILES": "O=C(Nc1nc2ccc(O)cc2s1)c1ccccc1", "RECORDED_METRIC": "residual kinase activity, JAK2", "DATA_VALUE": 36}
{"INPUT_SMILES": "O=C(Nc1nc2cc(O)ccc2s1)c1ccncc1", "RECORDED_METRIC": "residual kinase activity, JAK2", "DATA_VALUE": 66}
{"INPUT_SMILES": "CC(=O)Nc1nc2ccc(F)cc2s1", "RECORDED_METRIC": "residual kinase activity, JAK2", "DATA_VALUE": 49}

Requested field: residual kinase activity, JAK2. Item: O=C(Nc1nc2ccc(O)cc2s1)c1ccccn1
71

Requested field: residual kinase activity, JAK2. Item: O=C(Nc1nc2ccc(O)cc2s1)c1cccnc1
30

Requested field: residual kinase activity, JAK2. Item: N#Cc1ccc2nc(NC(=O)c3ccccc3)sc2c1
87

====

# System: CK2
# EXPERIMENT_NOTES: Kinase profiling CK2
# Assay type: biochemical
# MEASUREMENT_PARAMETERS: 100 micromolar inhibitor concentration; 100 is no change
# From the text: Any value less that 25 is considered to be highly significant inhibition.
RECORDED_METRIC: residual kinase activity, CK2
A bare number is all that is needed in reply.

Worked examples, 5 compounds total:
{"INPUT_SMILES": "COc1ccc2sc(NC(=O)c3cccc(C(N)=O)c3)nc2c1", "residual kinase activity, CK2": 46}
{"INPUT_SMILES": "O=C(Nc1nc2cc(O)ccc2s1)c1ccccn1", "residual kinase activity, CK2": 78}
{"INPUT_SMILES": "CC(=O)Nc1nc2ccc(O)cc2s1", "residual kinase activity, CK2": 23}
{"INPUT_SMILES": "O=C(Nc1nc2ccc(O)cc2s1)c1ccccn1", "residual kinase activity, CK2": 57}
{"INPUT_SMILES": "O=C(Nc1nc2cc(O)ccc2s1)c1ccccc1", "residual kinase activity, CK2": 75}

Now turn to the next compound.
Requested field: residual kinase activity, CK2. Item: CC(=O)Nc1nc2cc(C)ccc2s1
75

====

# TEST_SYSTEM: TAK1 (Homo sapiens)
# Sequence (O43318 1-303 limits assumed): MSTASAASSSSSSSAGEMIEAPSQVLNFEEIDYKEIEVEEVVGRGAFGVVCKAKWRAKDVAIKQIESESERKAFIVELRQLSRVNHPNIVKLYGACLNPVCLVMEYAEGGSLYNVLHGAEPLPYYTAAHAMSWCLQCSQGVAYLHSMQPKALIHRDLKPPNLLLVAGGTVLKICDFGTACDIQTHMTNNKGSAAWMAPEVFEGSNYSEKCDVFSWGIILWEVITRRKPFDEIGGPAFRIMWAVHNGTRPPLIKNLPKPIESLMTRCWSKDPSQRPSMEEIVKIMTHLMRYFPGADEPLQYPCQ
# Sequence (Q15750 437-504 partner limits assumed): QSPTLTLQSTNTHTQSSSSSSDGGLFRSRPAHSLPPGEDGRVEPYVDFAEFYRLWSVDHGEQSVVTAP
# EXPERIMENT_NOTES: Kinase profiling TAK1
# Format: biochemical
# MEASUREMENT_PARAMETERS: 100 micromolar inhibitor concentration; 100 is no change
Label MET for high-side residual kinase activity, TAK1 (at or above 60) and NOT MET for low-side residual kinase activity, TAK1 (below it).

{"MOLECULE": "O=C(Nc1nc2ccc(C(F)(F)F)cc2s1)c1ccccc1 [Compound 03-99]", "GROUP": "MET"}
{"MOLECULE": "COc1ccc2sc(NC(=O)c3cccc(C(N)=O)c3)nc2c1 [Compound 03-113]", "GROUP": "NOT MET"}
{"MOLECULE": "N#Cc1ccc2nc(NC(=O)c3ccccc3)sc2c1 [Compound 03-106]", "GROUP": "NOT MET"}
{"MOLECULE": "CC(=O)Nc1nc2ccc(F)cc2s1 [Compound 03-94]", "GROUP": "NOT MET"}

Does the molecule O=C(Nc1nc2cc(O)ccc2s1)c1ccncc1 [Compound 03-11] have recorded residual kinase activity, TAK1 that is 60 or more?
NOT MET

Does the molecule O=C(Nc1nc2cc(O)ccc2s1)c1cccnc1 [Compound 03-33] have recorded residual kinase activity, TAK1 that is 60 or more?
MET

Does the molecule O=C(Nc1nc2ccc(O)cc2s1)c1ccncc1 [Compound 08-42] have recorded residual kinase activity, TAK1 that is 60 or more?
NOT MET

Does the molecule COc1ccc2sc(NC(=O)c3ccccc3)nc2c1 [Compound 03-95] have recorded residual kinase activity, TAK1 that is 60 or more?
NOT MET

Does the molecule O=C(Nc1nc2ccc(O)cc2s1)c1ccccc1 [Compound 03-60] have recorded residual kinase activity, TAK1 that is 60 or more?
NOT MET

Does the molecule O=C(Nc1nc2cc(O)ccc2s1)c1ccccc1 [Compound 03-102] have recorded residual kinase activity, TAK1 that is 60 or more?
NOT MET

Does the molecule CC(=O)Nc1nc2cc(C)ccc2s1 [Compound 03-76] have recorded residual kinase activity, TAK1 that is 60 or more?
NOT MET

Does the molecule COC(=O)c1cccc(C(=O)Nc2nc3cc(OC)ccc3s2)c1 [Compound 03-108] have recorded residual kinase activity, TAK1 that is 60 or more?
MET

Does the molecule O=C(Nc1nc2ccc(F)cc2s1)c1ccccc1 [Compound 03-92] have recorded residual kinase activity, TAK1 that is 60 or more?
MET
